system: MCF7 multi-cell spheroids with HUVEC/MSC, viability; test: Anticancer human tumor MCF7 cell line growth inhibition [IpAb]; conditions: second compound 0.1 µM; first compound 10 µM; stronger effect = lower value;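 also: spheroids exposed to agents for seven days before readout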
Rule: viability, T/C below 80% gives satisfied. Equal to or above 80% gives not satisfied.

Worked cases, answers included:
[[record]]
molecule = "CCCS(=O)(=O)Nc1ccc(F)c(C(=O)c2c[nH]c3ncc(-c4ccc(Cl)cc4)cc23)c1F + CC(C)NCC(C(=O)N1CCN(c2ncnc3c2C(C)CC3O)CC1)c1ccc(Cl)cc1"
assigned_label = "not satisfied"

[[record]]
molecule = "CCCS(=O)(=O)Nc1ccc(F)c(C(=O)c2c[nH]c3ncc(-c4ccc(Cl)cc4)cc23)c1F + CCN1CCN(Cc2ccc(Nc3ncc(F)c(-c4cc(F)c5nc(C)n(C(C)C)c5c4)n3)nc2)CC1"
assigned_label = "satisfied"

[[record]]
molecule = "Cc1nc(NC(=O)N2CCCC2C(N)=O)sc1-c1ccnc(C(C)(C)C(F)(F)F)c1 (centres undefined) + CCN1CCN(Cc2ccc(Nc3ncc(F)c(-c4cc(F)c5nc(C)n(C(C)C)c5c4)n3)nc2)CC1"
assigned_label = "satisfied"


Strictly below 80% in viability, T/C? C=CCn1c(=O)c2cnc(Nc3ccc(N4CCN(C)CC4)cc3)nc2n1-c1cccc(C(C)(C)O)n1 + CC(C)NCC(C(=O)N1CCN(c2ncnc3c2C(C)CC3O)CC1)c1ccc(Cl)cc1
satisfied

Strictly below 80% in viability, T/C? C=CCn1c(=O)c2cnc(Nc3ccc(N4CCN(C)CC4)cc3)nc2n1-c1cccc(C(C)(C)O)n1 + CCN1CCN(Cc2ccc(Nc3ncc(F)c(-c4cc(F)c5nc(C)n(C(C)C)c5c4)n3)nc2)CC1
satisfied

Strictly below 80% in viability, T/C? C=CC(=O)N1CCN(c2nc(=O)n(-c3c(C)ccnc3C(C)C)c3nc(-c4c(O)cccc4F)c(F)cc23)C(C)C1 (centres undefined) + CCN1CCN(Cc2ccc(Nc3ncc(F)c(-c4cc(F)c5nc(C)n(C(C)C)c5c4)n3)nc2)CC1
satisfied

Strictly below 80% in viability, T/C? CC1(C)CCC(CN2CCN(c3ccc(C(=O)NS(=O)(=O)c4ccc(NCC5CCOCC5)c([N+](=O)[O-])c4)c(Oc4cnc5[nH]ccc5c4)c3)CC2)=C(c2ccc(Cl)cc2)C1 + CCN1CCN(Cc2ccc(Nc3ncc(F)c(-c4cc(F)c5nc(C)n(C(C)C)c5c4)n3)nc2)CC1
satisfied

Strictly below 80% in viability, T/C? Cn1nccc1Nc1nccc(-c2ccn(C(CO)c3ccc(Cl)c(F)c3)c(=O)c2)n1 (centres undefined) + CC(C)NCC(C(=O)N1CCN(c2ncnc3c2C(C)CC3O)CC1)c1ccc(Cl)cc1
not satisfied

Strictly below 80% in viability, T/C? C=CC(=O)N1CCN(c2nc(=O)n(-c3c(C)ccnc3C(C)C)c3nc(-c4c(O)cccc4F)c(F)cc23)C(C)C1 (centres undefined) + CC(C)NCC(C(=O)N1CCN(c2ncnc3c2C(C)CC3O)CC1)c1ccc(Cl)cc1
satisfied

---

tested on: MCF7 multi-cell spheroids with HUVEC/MSC, viability; test: Anticancer human tumor MCF7 cell line growth inhibition [IpAb]; conditions: curve of first compound; second compound 0.316 µM;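 also: spheroids exposed to agents for seven days before readout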
pIC50: −log10 of the molar value.
Parameter: pIC50. Scope: all listed entries.

Solved entries (count: 6):
[[record]]
molecule = "CCCS(=O)(=O)Nc1ccc(F)c(C(=O)c2c[nH]c3ncc(-c4ccc(Cl)cc4)cc23)c1F + CC(C)NCC(C(=O)N1CCN(c2ncnc3c2C(C)CC3O)CC1)c1ccc(Cl)cc1"
result = "< 5.00"

[[record]]
molecule = "Cn1ncnc1[C@H]1c2n[nH]c(=O)c3cc(F)cc(c23)N[C@@H]1c1ccc(F)cc1 + CCN1CCN(Cc2ccc(Nc3ncc(F)c(-c4cc(F)c5nc(C)n(C(C)C)c5c4)n3)nc2)CC1"
result = "< 7.00"

[[record]]
molecule = "CC(=O)c1c(C)c2cnc(Nc3ccc(N4CCNCC4)cn3)nc2n(C2CCCC2)c1=O + CC(C)NCC(C(=O)N1CCN(c2ncnc3c2C(C)CC3O)CC1)c1ccc(Cl)cc1"
result = "< 6.52"

[[record]]
molecule = "Cn1cnc2c(F)c(Nc3ccc(Br)cc3Cl)c(C(=O)NOCCO)cc21 + CC(C)NCC(C(=O)N1CCN(c2ncnc3c2C(C)CC3O)CC1)c1ccc(Cl)cc1"
result = "< 5.52"

[[record]]
molecule = "Cn1ncnc1[C@H]1c2n[nH]c(=O)c3cc(F)cc(c23)N[C@@H]1c1ccc(F)cc1 + CC(C)NCC(C(=O)N1CCN(c2ncnc3c2C(C)CC3O)CC1)c1ccc(Cl)cc1"
result = "< 7.00"

[[record]]
molecule = "CCCS(=O)(=O)Nc1ccc(F)c(C(=O)c2c[nH]c3ncc(-c4ccc(Cl)cc4)cc23)c1F + CCN1CCN(Cc2ccc(Nc3ncc(F)c(-c4cc(F)c5nc(C)n(C(C)C)c5c4)n3)nc2)CC1"
result = "< 5.00"


Write down the reported pIC50 of C=CC(=O)N1CCN(c2nc(=O)n(-c3c(C)ccnc3C(C)C)c3nc(-c4c(O)cccc4F)c(F)cc23)C(C)C1 (stereo not drawn) + CCN1CCN(Cc2ccc(Nc3ncc(F)c(-c4cc(F)c5nc(C)n(C(C)C)c5c4)n3)nc2)CC1 , test system: MCF7 multi-cell spheroids with HUVEC/MSC, viability.
< 5.00

Write down the reported pIC50 of Cn1nccc1Nc1nccc(-c2ccn(C(CO)c3ccc(Cl)c(F)c3)c(=O)c2)n1 (stereo not drawn) + CC(C)NCC(C(=O)N1CCN(c2ncnc3c2C(C)CC3O)CC1)c1ccc(Cl)cc1 , test system: MCF7 multi-cell spheroids with HUVEC/MSC, viability.
< 5.00
